# cond: in diethylene glycol, 307.9 K

{"columns": ["itemSmiles", "solubility (mole fraction)"],
 "data": [
  ["COc1cc(Cl)c(OC)cc1N", 0.0396]
]}

----------
# cond: in 2-ethoxyethanol, 317.1 K
metric: solubility (mole fraction)

{"columns": ["itemSmiles", "metric", "testResult"],
 "data": [
  ["COc1ccc(OC)c(N)c1", "solubility (mole fraction)", 0.262]
]}

----------
# cond: in diethylene glycol, 320.7 K

{"columns": ["itemSmiles", "solubility (mole fraction)"],
 "data": [
  ["COc1ccc(OC)c(N)c1", 0.177]
]}

----------
# cond: in diethylene glycol, 312 K
metric: solubility (mole fraction)

{"columns": ["itemSmiles", "metric", "testResult"],
 "data": [
  ["COc1cc(Cl)c(OC)cc1N", "solubility (mole fraction)", 0.0447]
]}

----------
# cond: in 2-ethoxyethanol, 325.5 K

{"columns": ["itemSmiles", "solubility (mole fraction)"],
 "data": [
  ["COc1ccc(OC)c(N)c1", 0.371]
]}

----------
# cond: in diethylene glycol, 315.2 K

{"columns": ["itemSmiles", "solubility (mole fraction)"],
 "data": [
  ["COc1cc([N+](=O)[O-])c(OC)cc1Cl", 0.000717]
]}

----------
# cond: in 2-methoxyethanol, 307.7 K

{"columns": ["itemSmiles", "solubility (mole fraction)"],
 "data": [
  ["COc1cc(Cl)c(OC)cc1N", 0.0768]
]}

----------
# cond: in diethylene glycol, 295.5 K

{"columns": ["itemSmiles", "solubility (mole fraction)"],
 "data": [
  ["COc1cc(Cl)c(OC)cc1N", 0.0279]
]}

----------
# cond: in 2-methoxyethanol, 288.7 K

{"columns": ["itemSmiles", "solubility (mole fraction)"],
 "data": [
  ["COc1ccc(OC)c(N)c1", 0.0819]
]}

----------
# cond: in 1-methoxy-2-propanol, 287.1 K
metric: solubility (mole fraction)

{"columns": ["itemSmiles", "testResult"],
 "data": [
  ["COc1cc([N+](=O)[O-])c(OC)cc1Cl", 0.00354]
]}

----------
# cond: in 1-methoxy-2-propanol, 289 K

{"columns": ["itemSmiles", "solubility (mole fraction)"],
 "data": [
  ["COc1ccc(OC)c(N)c1", 0.0512]
]}

----------
# cond: in 2-ethoxyethanol, 276.7 K

{"columns": ["itemSmiles", "solubility (mole fraction)"],
 "data": [
  ["COc1ccc(OC)c(N)c1", 0.0186],
  ["COc1cc([N+](=O)[O-])c(OC)cc1Cl", 0.00187]
]}

----------
# cond: in 2-methoxyethanol, 277.2 K

{"columns": ["itemSmiles", "solubility (mole fraction)"],
 "data": [
  ["COc1cc(Cl)c(OC)cc1N", 0.0282]
]}

----------
# cond: in 2-ethoxyethanol, 308.9 K

{"columns": ["itemSmiles", "solubility (mole fraction)"],
 "data": [
  ["COc1ccc(OC)c(N)c1", 0.199]
]}
